target: Potassium voltage-gated channel subfamily A member 3 (Homo sapiens); test: Inhibition of Kv1.3 (unknown origin)
Sequence (P22001 whole entry): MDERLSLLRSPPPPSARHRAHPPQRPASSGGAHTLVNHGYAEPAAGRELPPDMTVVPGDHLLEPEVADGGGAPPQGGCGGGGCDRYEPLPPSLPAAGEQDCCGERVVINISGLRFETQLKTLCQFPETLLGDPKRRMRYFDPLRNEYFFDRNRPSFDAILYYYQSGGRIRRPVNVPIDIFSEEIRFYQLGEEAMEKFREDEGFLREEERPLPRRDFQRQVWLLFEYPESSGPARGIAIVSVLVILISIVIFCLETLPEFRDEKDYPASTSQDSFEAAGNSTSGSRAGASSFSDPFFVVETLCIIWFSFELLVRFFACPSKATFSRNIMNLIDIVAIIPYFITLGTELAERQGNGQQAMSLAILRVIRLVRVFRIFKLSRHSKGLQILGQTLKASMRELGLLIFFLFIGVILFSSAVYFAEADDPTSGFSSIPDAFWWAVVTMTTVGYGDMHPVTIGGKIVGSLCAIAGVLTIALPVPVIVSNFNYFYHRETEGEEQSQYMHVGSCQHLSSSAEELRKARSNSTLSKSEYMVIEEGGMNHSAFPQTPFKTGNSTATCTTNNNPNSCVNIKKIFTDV
pEC50: −log10 of the molar value.
ATTRIBUTE MEASURED: pEC50

SMILES REPRESENTATION: COc1cc(OC)cc(OCCCCOc2c3ccoc3cc3oc(=O)ccc23)c1
READOUT VALUE: 6.92
--
SMILES REPRESENTATION: N#CCCCCOc1c2occc2cc2ccc(=O)oc12
READOUT VALUE: 5.30
--
SMILES REPRESENTATION: O=c1ccc2c(OCCCCSc3ncccn3)c3ccoc3cc2o1
READOUT VALUE: 7.30
--
SMILES REPRESENTATION: O=c1ccc2ccc(OCCCCOc3c4ccoc4cc4oc(=O)ccc34)cc2o1
READOUT VALUE: 6.90

====

biological target: Potassium voltage-gated channel subfamily A member 3 (Homo sapiens); assay: Inhibition of Kv1.3 (unknown origin)
Measured EC50 by item

SMILES REPRESENTATION: N#CCCCOc1c2ccoc2cc2oc(=O)ccc12
MEASURE UNIT: nM
EC50: 5000
//
SMILES REPRESENTATION: COc1ccc2sc(SCCCCOc3c4ccoc4cc4oc(=O)ccc34)nc2c1
MEASURE UNIT: nM
EC50: 35
//
SMILES REPRESENTATION: CCc1ccc(OCCCOc2c3ccoc3cc3oc(=O)ccc23)cc1
MEASURE UNIT: nM
EC50: 14
//
SMILES REPRESENTATION: O=c1ccc2c(OCCCOCc3ccccc3)c3ccoc3cc2o1
MEASURE UNIT: nM
EC50: 50
//
SMILES REPRESENTATION: O=c1ccc2c(OCCCOc3ccc(Cl)cc3)c3ccoc3cc2o1
MEASURE UNIT: nM
EC50: 10
//
SMILES REPRESENTATION: COc1cc(OC)cc(OCCCOc2c3ccoc3cc3oc(=O)ccc23)c1
MEASURE UNIT: nM
EC50: 75
//
SMILES REPRESENTATION: O=c1ccc2c(OCCOCc3ccccc3)c3ccoc3cc2o1
MEASURE UNIT: nM
EC50: 10
//
SMILES REPRESENTATION: COc1ccc(OCCCCOc2c3ccoc3cc3oc(=O)ccc23)cc1
MEASURE UNIT: nM
EC50: 8
